assay: amyloid nucleation score (Sup35N fusion, yeast selection) (log enrichment); library NNK2; higher = more nucleation; inactive = no reads after selection;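 note: zero at mode of non-aggregating sequences after 7 days selection at 30°C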
Assign class by amyloid nucleation score: not lower than 0.7 means 1; lower than 0.7 means -1.

Some entries whose results are on file:
GSPWGSHGRHGLKHTKALKA; 1
VAKLLMAGVVKPCRGGRCVG; 1
TGQKFT; -1

Query: Test whether the substance HNLCGYLLVSVAWVLWWIRR records amyloid nucleation score of 0.7 or higher.
Reply: 1

Query: For this substance, is measured amyloid nucleation score 0.7 or higher? YAQQIVVLVAGPWWSWTRRG
Reply: 1

###

test: amyloid nucleation score (Sup35N fusion, yeast selection) (log enrichment); library NNK3; higher = more nucleation; inactive = no reads after selection
Property Measured: amyloid nucleation score

As a guide, the following entries are already answered.
SFCGLYVKFSVGYVVLIWGS; inactive
SNVSVHGMIESMLWLSTRDI; inactive
SWPSASSFDSR; inactive
GSWTVLQNRHQAERVVSVYR; inactive
WFERCLCLLTTRIKYLFSAD; inactive
RRKRYCISDLA; inactive
SWRLYMMA; inactive
TDPFLTCK; inactive
MVVLRAVEQLGVRNNDYHS; inactive
SFYYILYTGCVIGIVASLFK; -0.408

amyloid nucleation score reading for GYLWVLRLPGVSEFIEMDLQ : inactive

Measured amyloid nucleation score, VRTVFCNIFFEFRGGSRNWA : 1.79

Just so you know, measured amyloid nucleation score for ISVRFLCNYCRRVYIRRCAV came out at inactive

The sequence listed as RKRYFWNHAEISILKTSSSW shows amyloid nucleation score equal to inactive

Memo: LTAVLLTPYSLFGFALWWFV , reported amyloid nucleation score: -0.487

The measured amyloid nucleation score associated with YSANDLPVNAHGEILKVGLL reads inactive

Looking up LCGPSDLAT , I found its amyloid nucleation score recorded as 0.096

###

assay: amyloid nucleation score (Sup35N fusion, yeast selection) (log enrichment); library NNK2; higher = more nucleation; inactive = no reads after selection
Property Measured: amyloid nucleation score

Worked cases, answers included:
MFVRRKSVSMVEYWE; 0.054
YKLAFQSYIDGLLIL; inactive
CSMMNLKSFLADCSIPAFTG; -0.962
WGSGNGLVGLHYLASLFERN; 0.847
CVVDLDPCNGDAGLSSYTIS; 0.594
YISCYCRSSFRMLSVVSDYR; 2.54
SFSRYF; -1.58
SRVIVTDFVNSNATA; 0.218
MVVLCHINLYEYGSFNPSST; 6.31
IMMWFYPARTRQELASYEDQ; 2.12

Measured amyloid nucleation score, MGTPLNFGCQY : -1.26

Reported amyloid nucleation score ( ITYLWYISVLYREMPLCCAS ) = 0.237

Reported amyloid nucleation score for FFIGIQQWSYHWPVVGVYNK was inactive

For record LRVGSCNVTSLMGNLVGLDS the listed amyloid nucleation score is 1.37

The recorded amyloid nucleation score for entry SFFMEDQCTRPLVWEVRVFN equals 0.049

amyloid nucleation score reading for FEIGSV : inactive

Recorded amyloid nucleation score (substance TLVSWYSTTEPAC ): -1.13

substance HNTKSYLWV , amyloid nucleation score observed: inactive

###

assay: amyloid nucleation score (Sup35N fusion, yeast selection) (log enrichment); library NNK3; higher = more nucleation; inactive = no reads after selection
Property Measured: amyloid nucleation score

GVWKEHVTRAAVVSWKEGVN; inactive
LYYNYRGGYVYKNRDEVTLF; inactive
YLIAIG; inactive
LVYFFFRVYNGPRMGS; inactive
MSSFLTPAGRFSRYFTFVCF; inactive
LNQLGSCY; -0.019
GLNMPLSFSPKRRHFVREWK; inactive
VEDGAGGP; inactive
CEVHEGWIA; inactive
TLWCNLSSGMMNFPTASRNL; 1

Entry FSNGMVLFF , amyloid nucleation score reported as inactive

The substance listed as INEWFGSKDFAETGHLEVRY shows amyloid nucleation score equal to inactive

Measured amyloid nucleation score, LVVCKLRV : inactive

The substance listed as CAYVENSCGTILVCALYCGS has a reported amyloid nucleation score of inactive

substance VFVSSKTISLSGSLMISPNL , amyloid nucleation score observed: 1.69

So, VGKLLVGTWWHGSYRSMSKR ? Its amyloid nucleation score was inactive

###

Recorded measurements of amyloid nucleation score, one per entry
experiment: amyloid nucleation score (Sup35N fusion, yeast selection) (log enrichment); library NNK2; higher = more nucleation; inactive = no reads after selection
Lab note: jot the number down without any unit.

TCNWGMDG; 0.553
SYWNLRQVVSIDDCMQSTFN; 0.058
WWDRVRLFRYRLCGSKSLMS; 0.429

Note to self: amyloid nucleation score recorded for FKSLLCLFAWRLVTFHVGE was -0.73

What the record says about TVWGQECYW : amyloid nucleation score is 5.74

// sample VFILSEYVTNAVK , its amyloid nucleation score was -0.165

Documented amyloid nucleation score of MYSVMLRTSYCTLARYMVLW : 1.08

Field amyloid nucleation score (entry VHQFADFNKIMNGLDDLLLK ) reads 2.65

Sure, the documented amyloid nucleation score for HIDEYKWT is 0.546

###

assay: amyloid nucleation score (Sup35N fusion, yeast selection) (log enrichment); library NNK3; higher = more nucleation; inactive = no reads after selection
Property Measured: amyloid nucleation score

ILGFLCPLFSFFFSGGYFLG; inactive
LELVYGKIYSDPSTFRGHLV; inactive
TWKHFFIALLRRSNY; inactive
TIFVVCIRIFVWFLCYGSDP; 0.207
RNTGKAVHFCNRVYDSSMSM; -0.1
TKDRFFLKHTGRIMLGLRR; inactive
TLFWMSYWMRPSNIHCCVRM; inactive
GVGATATTFWGVRWVRRSTN; inactive
FVERTRKRVNVRRNRHVTET; inactive
ITGGTPCGITTVWQKGAMG; inactive

// amyloid nucleation score lookup, substance = SHVNRVRSLYVGE , result: inactive

The recorded amyloid nucleation score for entry VRCVVGITVFGIHERVTSER equals 0.169

get_value(item= YFCVCSCVDFGYASYRGYAA , readout=amyloid nucleation score) returns inactive

###

experiment: amyloid nucleation score (Sup35N fusion, yeast selection) (log enrichment); library NNK1; higher = more nucleation; inactive = no reads after selection
Property Measured: amyloid nucleation score

The examples below pair each entry with its known result.
LLMEFI; 1.46
SCVQRVLSIVNSFGRRSQTR; 0.269
CFSQPHGAVANHNAFSDNPW; -0.289
GFPSRSIHFKLYLAANMQ; 1.07
SVSFEDDISMASGCCFLRGC; -0.146

# substance FYVMCSARSQHAFSNKYLGY ; its amyloid nucleation score = -0.165

# substance SRRCLLKNISSPCF ; its amyloid nucleation score = -1.82

###

assay: amyloid nucleation score (Sup35N fusion, yeast selection) (log enrichment); library NNK3; higher = more nucleation; inactive = no reads after selection
Property Measured: amyloid nucleation score

Some entries whose results are on file:
DTLPHAVKLIEKM; inactive
KRLQWMYYL; inactive
RMINVSVR; inactive
LGDDVFSLAFGDNFKDHKFH; inactive
IGNFRGL; inactive
HTSPWVELPVGISRTCDEDR; inactive
PCVYWSLNCSVVIIFSTRLL; inactive
WPDLQLLSSALPTPLQFSWL; inactive

Recorded amyloid nucleation score (substance MLAGWSQFYGISRYLPENPV ): inactive

get_value(item= RVRDCSHRLLDIFVYLCGNT , readout=amyloid nucleation score) returns inactive

###

Reported amyloid nucleation score values for the following sequences.
experiment: amyloid nucleation score (Sup35N fusion, yeast selection) (log enrichment); library NNK1; higher = more nucleation; inactive = no reads after selection
Give the figure by itself; no unit, no explanation.

Known amyloid nucleation score results, listed for orientation:
VWRSFSGNITCMLFYNFPVR; -0.621
LWFNSDLIE; -0.369
RLNHEFFGYKRKTKLAGGLR; -0.107

Given item WLDAVGMAAG , the value recorded as its amyloid nucleation score is -0.989

Value of measured amyloid nucleation score for the entry RRSISWNIRSEDLR : 0.85

Data point: LDVRAIRYILK ; amyloid nucleation score = -0.252

Recorded result, GGSDFWIGN , amyloid nucleation score: 0.277

amyloid nucleation score for YVYNFMYTVNCMVEPFWLEC is 7.12

###

experiment: amyloid nucleation score (Sup35N fusion, yeast selection) (log enrichment); library NNK3; higher = more nucleation; inactive = no reads after selection
Property Measured: amyloid nucleation score

Please review the entries below; each comes with its answer.
KDADMDLLSRYATRCGVSRL; inactive
VIGHMIGMDY; inactive
QSYIRKQFRIQSHISFSDNS; inactive
LSNLRGYNH; inactive
TYHSCY; inactive
MGPRQKCALIATRKCQSVYL; -0.334
WAYMVNFFRTNLICEGWFDG; -0.841
WCFCFMCSFMTKFFHYLGS; inactive
IWRLCNVPICPSLRGAGHYS; inactive
NKAIILHVM; inactive

// amyloid nucleation score value for EVCWVSEWQLIVMRFSCTWL : inactive

Value of amyloid nucleation score reported for the substance LSEWMSESGNFEFCVASLYR is inactive

Note to self: amyloid nucleation score recorded for SKLHAE was inactive

Where do these numbers come from? They come from the supplement of paper PMC12042874.
